- EXPERIMENTAL SYSTEM: 5-HT3 receptor (Rattus norvegicus, UniProt P35563)
- Construct: crude synapse membrane sample was prepared from rat cerebral cortex; from tissue; host or cells: rat cerebral cortex, crude synaptic membranes
- Sequence (P35563 24-483): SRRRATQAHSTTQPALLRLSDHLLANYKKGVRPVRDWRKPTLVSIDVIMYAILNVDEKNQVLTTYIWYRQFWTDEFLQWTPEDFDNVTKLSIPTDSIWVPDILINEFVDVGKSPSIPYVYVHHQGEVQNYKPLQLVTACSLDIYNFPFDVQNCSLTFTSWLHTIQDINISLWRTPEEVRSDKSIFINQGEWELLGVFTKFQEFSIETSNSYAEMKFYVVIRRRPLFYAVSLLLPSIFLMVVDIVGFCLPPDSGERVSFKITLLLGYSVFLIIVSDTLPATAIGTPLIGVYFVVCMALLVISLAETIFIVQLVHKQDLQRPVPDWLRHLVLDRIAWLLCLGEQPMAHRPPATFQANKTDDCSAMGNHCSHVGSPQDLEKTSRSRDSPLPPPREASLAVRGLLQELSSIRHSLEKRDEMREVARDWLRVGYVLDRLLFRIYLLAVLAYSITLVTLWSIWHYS
- ASSAY INFO: 5-HT3 receptor binding test ([3H]Granisetron, crude synapse membrane from cerebral cortex)
- APPLIED CONDITIONS: [3H]Granisetron 1.0 nM, rat cerebral cortex membranes, 25°C, 30 min; IC50 converted to Ki; read-out: Affinity for receptor (Ki value, nM) 5-HT3
Quick list: Ki per entry.
PROPERTY: Ki (nM)

* COc1cc(N)c(Cl)cc1C(=O)NCC1CCN(CCCCCSCc2ccccc2)CC1 [Example 54] | 340
* COc1cc(N)c(Cl)cc1C(=O)NCC1CCN(CCCCCOCc2ccccc2)CC1 [Example 53] | 370
